molecular target: WRN (human, UniProt Q14191 1-1432); assay: EMSA; ATPgS, 4 mM Mg2+, 10 mM KCl; EMSA: 40 mM Tris-HCl pH 8.0, 4 mM MgCl2, 5 mM DTT, 1 mM ATPgS, 0.1 ug BSA in 10 ul, 4 C, 20 min; +10 mM KCl for quadruplexes; 4% gel, 0.5x Tris-glycine pH 8.3; conditions: protein: recombinant; tags: His6; label: 5'-32P; G4 dimer of 2 strands, described as antiparallel
Sequence (Q14191 whole entry): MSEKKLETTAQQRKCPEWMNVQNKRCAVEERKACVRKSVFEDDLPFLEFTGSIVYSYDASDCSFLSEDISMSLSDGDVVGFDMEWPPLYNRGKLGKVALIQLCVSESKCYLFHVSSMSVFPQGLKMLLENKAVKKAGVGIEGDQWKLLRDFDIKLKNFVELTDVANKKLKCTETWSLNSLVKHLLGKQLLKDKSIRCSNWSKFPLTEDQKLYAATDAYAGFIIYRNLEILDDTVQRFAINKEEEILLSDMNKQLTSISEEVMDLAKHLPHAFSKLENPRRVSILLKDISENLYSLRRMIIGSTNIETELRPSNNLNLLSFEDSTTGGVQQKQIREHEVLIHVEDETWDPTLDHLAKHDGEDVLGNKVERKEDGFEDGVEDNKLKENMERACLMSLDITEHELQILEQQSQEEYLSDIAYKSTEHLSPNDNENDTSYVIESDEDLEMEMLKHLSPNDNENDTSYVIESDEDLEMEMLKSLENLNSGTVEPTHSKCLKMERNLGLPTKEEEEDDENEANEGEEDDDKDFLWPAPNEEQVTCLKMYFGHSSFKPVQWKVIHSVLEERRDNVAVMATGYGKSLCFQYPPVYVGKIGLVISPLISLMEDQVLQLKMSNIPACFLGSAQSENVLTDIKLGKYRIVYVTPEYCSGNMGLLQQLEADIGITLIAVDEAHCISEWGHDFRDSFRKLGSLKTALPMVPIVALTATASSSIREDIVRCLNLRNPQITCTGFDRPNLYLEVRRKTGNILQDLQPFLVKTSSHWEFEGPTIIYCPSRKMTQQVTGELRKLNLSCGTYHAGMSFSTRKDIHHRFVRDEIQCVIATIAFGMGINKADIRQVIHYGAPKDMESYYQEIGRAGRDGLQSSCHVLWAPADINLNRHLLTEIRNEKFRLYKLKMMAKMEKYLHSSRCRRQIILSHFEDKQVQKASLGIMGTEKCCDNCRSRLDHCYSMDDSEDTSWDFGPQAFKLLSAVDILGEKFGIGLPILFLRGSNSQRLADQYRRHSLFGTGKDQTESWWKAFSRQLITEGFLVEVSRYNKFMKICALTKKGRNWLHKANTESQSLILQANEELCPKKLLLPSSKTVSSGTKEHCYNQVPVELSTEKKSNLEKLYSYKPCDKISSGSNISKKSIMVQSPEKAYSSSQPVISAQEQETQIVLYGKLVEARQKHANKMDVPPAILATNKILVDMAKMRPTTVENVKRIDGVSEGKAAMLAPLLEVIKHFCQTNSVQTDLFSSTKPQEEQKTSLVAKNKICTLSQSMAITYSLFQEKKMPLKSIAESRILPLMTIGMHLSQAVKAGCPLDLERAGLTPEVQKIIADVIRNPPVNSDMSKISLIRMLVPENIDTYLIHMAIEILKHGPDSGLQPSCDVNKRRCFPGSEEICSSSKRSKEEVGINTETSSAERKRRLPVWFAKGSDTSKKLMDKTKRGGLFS
measuredMetric: Kd (nM)
Answer with a number only, understood to be in nM.

QUERY: Can you share its Kd? I mean this binder: GGTTAGGGTTAGGGTTAGGGTTAGGGTTAGTTAGGGTTAGGGT (structured_DNA) [G'2 TeR43 quadruplex]
RESULT: 0.26
